conditions: 313.15 K; 10000 kPa; Liquid
Endpoint label: molar volume (m3/mol)
Answer in m3/mol, number only, no unit symbol.

Take a look at these entries with their results.
CO [methanol] = 4.096e-05
CCCO [propan-1-ol] = 7.569e-05
CC(C)O [propan-2-ol] = 7.72e-05
CCO [ethanol] = 5.899e-05

# query: molar volume of entry CN(C)CCO [2-(N,N-dimethylamino)ethanol]
0.0001024

----------
details: 298.15 K; 100 kPa; Liquid
The following compounds are shown together with reported molar volume values.
Answer in m3/mol, number only, no unit symbol.

# query: molar volume of entry CN(C)CCO [2-(N,N-dimethylamino)ethanol]
0.0001009

# query: molar volume of entry CC(C)O [propan-2-ol]
7.694e-05

# query: molar volume of entry CCO [ethanol]
5.867e-05

# query: molar volume of entry CO [methanol]
4.073e-05

# query: molar volume of entry CCCO [propan-1-ol]
7.514e-05

----------
conditions: 328.15 K; 100 kPa; Liquid
The following compounds are shown together with reported molar volume values.
Answer in m3/mol, number only, no unit symbol.

Take a look at these entries with their results.
CO [methanol] = 4.221e-05
CCO [ethanol] = 6.067e-05
CC(C)O [propan-2-ol] = 7.962e-05

# query: molar volume of entry CN(C)CCO [2-(N,N-dimethylamino)ethanol]
0.0001039

# query: molar volume of entry CCCO [propan-1-ol]
7.759e-05

----------
settings: 328.15 K; 10000 kPa; Liquid
The following compounds are shown together with reported molar volume values.
Answer in m3/mol, number only, no unit symbol.

# query: molar volume of entry CCCO
7.694e-05

# query: molar volume of entry CC(C)O
7.857e-05

# query: molar volume of entry CCO
6.001e-05

# query: molar volume of entry CO
4.17e-05

# query: molar volume of entry CN(C)CCO
0.0001039

----------
details: 298.15 K; 10000 kPa; Liquid
Endpoint label: molar volume (m3/mol)
Answer in m3/mol, number only, no unit symbol.

Take a look at these entries with their results.
CC(C)O = 7.594e-05
CCO = 5.803e-05
CCCO = 7.452e-05
CO = 4.024e-05

# query: molar volume of entry CN(C)CCO
0.0001009

----------
conditions: 313.15 K; 100 kPa; Liquid
Numbers after ± are expanded uncertainties.
Endpoint label: molar volume
Field note: include the unit after the figure.

CO [methanol] = 4.146e-05 ± 6e-08 m3/mol
CCO [ethanol] = 5.964e-05 ± 5e-08 m3/mol
CN(C)CCO [2-(N,N-dimethylamino)ethanol] = 0.0001024 ± 5e-08 m3/mol

# query: molar volume of entry CCCO [propan-1-ol]
7.632e-05 ± 6e-08 m3/mol

# query: molar volume of entry CC(C)O [propan-2-ol]
7.822e-05 ± 6e-08 m3/mol
